- Test system: biotinyl-Leu-oxazolone
- testMethodNotes: self-aminoacylation, catalytic enhancement (BLO) (fold over background); higher = more active; k-Seq, kA / k0A0; sequences stand for … in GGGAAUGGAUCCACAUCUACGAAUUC…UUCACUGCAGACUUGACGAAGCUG
Fewer inactive variants are shown than the library holds.
Below, each entry is listed with its recorded self-aminoacylation.
Give only the figure.

Look over these answered cases.
AUUCACCUAAGCCAUCGGGUG [Fam2.2 aminoacylation ribozyme variant] | 4.62
AUUAACCUGGUCACCGAGUGA [Fam2.1 aminoacylation ribozyme variant] | 8.22
AUUACCCUGGUUGUCGAGUGA [Fam2.1 aminoacylation ribozyme variant] | 1.85
UGACUUCAAACAAUCGGUCUG [Fam1A.1 aminoacylation ribozyme variant] | 2.53
AUUCACCUAUGUCAUCGAGUG [Fam2.2 aminoacylation ribozyme variant] | 5.42
AUUAUCCUGGUCAUCGCGUGA [Fam2.1 aminoacylation ribozyme variant] | 19.9
AUUCACCCAGGGCAUCGGGUG [Fam2.2 aminoacylation ribozyme variant] | 6.26
UUUCACCUAGGUCCUCGGGUG [Fam2.2 aminoacylation ribozyme variant] | 4.92

Then this sequence:
Please give the documented self-aminoacylation of CCACAGUUCAAGCAAUGGGUC [Fam1B.1 aminoacylation ribozyme variant]
0.763

* * *

- System: biotinyl-Val-oxazolone
- testMethodNotes: self-aminoacylation, catalytic enhancement (BVO) (fold over background); higher = more active; k-Seq, kA / k0A0; sequences stand for … in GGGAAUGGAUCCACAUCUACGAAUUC…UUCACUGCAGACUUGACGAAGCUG
Fewer inactive variants are shown than the library holds.
Mark false for self-aminoacylation values under 1, and true for everything at or above.

Some solved cases for reference:
AUUCACCUAGGUCCUGGGGUG [Fam2.2 aminoacylation ribozyme variant] | true
CUACUCCACACAAUCGGUCUG [Fam1A.1 aminoacylation ribozyme variant] | false
AGUCACCUAGGUCAUCGGAUG [Fam2.2 aminoacylation ribozyme variant] | true
AUUCACCGAGGUCGUCGGGUG [Fam2.2 aminoacylation ribozyme variant] | true
AUUACACUGAUCAUCGAGUGA [Fam2.1 aminoacylation ribozyme variant] | true

State whether the measured self-aminoacylation reaches 1, counting equality as reaching it, for AUUACCCUGGUGAUUGAGUGA [Fam2.1 aminoacylation ribozyme variant]
true

In plain terms: is recorded self-aminoacylation at least 1 for AAUACCAUGGUCAUCGAGUGA [Fam2.1 aminoacylation ribozyme variant] ?
true

// inclusive: self-aminoacylation at least 1? input: AAGUUUGCUACUAGUCGCAAC [Fam3.1 aminoacylation ribozyme variant]
false

Textbook exercise: given the entry CUACUUCAGACAAUCGGUCCG [Fam1A.1 aminoacylation ribozyme variant] , state whether its self-aminoacylation is greater than or equal to 1.
false

* * *

- Test system: biotinyl-Phe-oxazolone
- testMethodNotes: self-aminoacylation, catalytic enhancement (BFO) (fold over background); higher = more active; k-Seq, kA / k0A0; sequences stand for … in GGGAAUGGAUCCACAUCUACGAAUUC…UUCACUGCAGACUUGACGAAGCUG
This sample holds only a part of the variants without activity.
property: self-aminoacylation
Give a plain numeric answer without units written out.

Illustrative cases are given below, each with its answer.
CCACACUUCAAGCAAUUGGCC [Fam1B.1 aminoacylation ribozyme variant] | 2.34
AUUCCCCUGGUCAUCGAGUAA [Fam2.1 aminoacylation ribozyme variant] | 1.42
AUGUUUGGUAAUAGUCGCAAG [Fam3.1 aminoacylation ribozyme variant] | 3.16
CAACUUCAAACAAUCGGUCCG [Fam1A.1 aminoacylation ribozyme variant] | 5.44

Now for the sequence whose self-aminoacylation we want.
Recall the reported self-aminoacylation of AUUCACUUAGGUCUUCGGGUG [Fam2.2 aminoacylation ribozyme variant] when tested on biotinyl-Phe-oxazolone.
22.7
